Test system: HOP-92 NSCLC
Assay: NCI-60 one-dose screen, 48 h (100 = growth as untreated, 0 = no growth, -100 = all killed)
Settings: 10 µM unless noted
The panel holds about 83,000 compounds, 20% with a hit somewhere; the sample as a whole holds those more often. Active and inactive are the calls of the source. Rule for the calls: active = growth percent below 10; inactive = the rest.
# reported growth; entries follow

{"compound": "CC[C@H](C)[C@H](NC(=O)[C@H]1CCCCN1C)C(=O)N(C)[C@H](C[C@@H](OC(C)=O)c1nc(C(=O)N[C@@H](Cc2ccccc2)C[C@H](C)C(=O)OC)cs1)C(C)C", "reported": "-0.123% (active)"}
{"compound": "CCOC(=O)[C@@H](C)C[C@H](Cc1ccccc1)NC(=O)c1csc([C@@H](C[C@H](C(C)C)N(C)C(=O)[C@@H](NC(=O)[C@H]2CCCCN2C)C(C)(C)C)OC(C)=O)n1", "reported": "28.5% (inactive)"}
{"compound": "CCn1cnc2c(Nc3cccc(Cl)c3)nc(N[C@@H]3CCCC[C@@H]3N)nc21", "reported": "-9.78% (active)"}
{"compound": "CC[C@H](C)[C@@H]1OC(=O)C(C)(C)[C@H](O)[C@H](Cc2ccccc2)OC(=O)[C@H](C(C)C)OC(=O)[C@@H](NC(=O)c2cccc(NC=O)c2O)[C@@H](C)OC1=O", "reported": "68% (inactive)"}
{"compound": "CN1CC(CNC(=O)OCc2ccccc2)CC2c3cccc4c3c(cn4C)CC21 (configuration not stated)", "reported": "29.5% (inactive)"}
{"compound": "CC(=O)Oc1ccccc1C(=O)NCCC[Se]C#N", "reported": "-18.5% (active)"}

Please examine the following record next.
I would be grateful if you could share the reported growth for `COc1cc([C@@H]2c3cc4c(cc3[C@H](OC(C)=O)[C@H]3COC(=O)[C@H]23)OCO4)cc(OC)c1OC` .
32.8% (inactive)

The measured values listed here are drawn from PubChem BioAssay (NCI).
